What follows is a record of log10(IC50) for PI3Kδ kinase (Homo sapiens).
Record value = log10 of IC50 given in nM.

Before answering, review these 5 worked examples.
# Molecule, Assay Result
records = [
    ("CCOCCCn1c(=O)c(C#N)cc2cnc(Nc3ccc4c(c3)CCNC4)nc21 [Compound No. 343]", 2.89),
    ("CCC(C)n1c(=O)c(C#N)cc2cnc(Nc3ccc4c(c3)CCNC4)nc21 (centres unmarked) [Compound No. 80]", 2.47),
    ("N#Cc1cc2cnc(Nc3ccc4c(c3)CCNC4)cc2n(C2CCCC2)c1=O [Compound No. 90]", 3.69),
    ("N#Cc1cc2cnc(Nc3ccc4c(c3)CNCC4)nc2n(C2CCCC2)c1=O [Compound No. 29]", 2.74),
    ("CC(c1ccccc1)n1c(=O)c(C#N)cc2cnc(Nc3ccc(N4CCN(C)CC4)cc3)nc21 (centres unmarked) [Compound No. 35]", 2.87),
]

// lookup log10(IC50) for N#Cc1cc2cnc(Nc3ccc(C4CCNCC4)cc3)nc2n(C2CCCC2)c1=O [Compound No. 37]
1.81

Param item: CN(C)CC(=O)N1CCc2cc(Nc3ncc4cc(C#N)c(=O)n(C5CCCC5)c4n3)ccc2C1 [Compound No. 54]
2.39

Param item: N#Cc1cc2cnc(Nc3ccc(N4CCNCC4)c(F)c3)nc2n(C2CCCC2)c1=O [Compound No. 13]
2.75

* * *

system: MCF-7-PR (palbociclib-resistant MCF-7) cells; assay: Cell viability in palbociclib-resistant cell line; format: cell-based; details: Homo sapiens, MCF7; Table 5; palbociclib-resistant cell line maintained at about 850 nM palbociclib
Parameter: IC50 (nM)
Response body: numeric value in nM, unit text excluded.

# Molecule, IC50, nM
records = [
    ("N#Cc1cc2cnc(Nc3ccc4c(c3)CCNC4)nc2n(C2CC3CC3C2)c1=O (stereo not shown)", 361),
    ("CS(=O)(=O)N1CCC(Nc2ncc3cc(C#N)c(=O)n([C@H]4C[C@@H]5CC[C@H]4C5)c3n2)CC1 (racemic)", 769),
    ("N#Cc1cc2cnc(Nc3ccc(N4CCNCC4)c(C(F)(F)F)c3)nc2n(C2CCCC2)c1=O", 65),
    ("CS(=O)(=O)N1CCC(Nc2ncc3cc(C#N)c(=O)n(C4CCCC4)c3n2)CC1", 911),
    ("N#Cc1cc2cnc(Nc3ccc(N4CCNCC4)c(Cl)c3)nc2n(C2CCCC2)c1=O", 85),
]

// lookup IC50 for N#Cc1cc2cnc(Nc3cnn(C4CCNCC4)c3)nc2n(C2CCCC2)c1=O
1040

* * *

Some compounds, each annotated with its measured IC50.
molecular target: CDK4 (Homo sapiens, UniProt P11802); assay: In vitro kinase inhibition IC50, luminescence (ADP Glo), retinoblastoma substrate; settings: read-out: CDK4/D1 IC50
Sequence (P11802 whole entry): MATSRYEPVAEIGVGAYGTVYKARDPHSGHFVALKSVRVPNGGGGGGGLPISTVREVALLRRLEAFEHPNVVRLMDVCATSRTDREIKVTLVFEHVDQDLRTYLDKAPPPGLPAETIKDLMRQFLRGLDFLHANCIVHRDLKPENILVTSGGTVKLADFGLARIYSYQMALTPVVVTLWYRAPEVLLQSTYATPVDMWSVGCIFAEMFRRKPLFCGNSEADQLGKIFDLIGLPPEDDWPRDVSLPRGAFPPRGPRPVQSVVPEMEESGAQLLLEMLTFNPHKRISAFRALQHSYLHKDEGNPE
Sequence (P24385 whole entry partner): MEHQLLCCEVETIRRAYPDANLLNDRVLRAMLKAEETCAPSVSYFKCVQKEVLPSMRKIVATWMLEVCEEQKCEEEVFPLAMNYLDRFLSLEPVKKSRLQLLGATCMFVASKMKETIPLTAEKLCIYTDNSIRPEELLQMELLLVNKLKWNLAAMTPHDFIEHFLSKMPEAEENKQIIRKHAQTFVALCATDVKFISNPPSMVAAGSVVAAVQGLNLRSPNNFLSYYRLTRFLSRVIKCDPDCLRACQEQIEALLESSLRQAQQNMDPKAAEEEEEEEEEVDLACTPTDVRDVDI
Response body: numeric value in nM, unit text excluded.

Before answering, review these 3 worked examples.
# Compound, IC50 (nM)
records = [
    ("N#Cc1cc2cnc(Nc3ccc4c(c3)CCNC4)nc2n(C2CCCC2)c1=O", 5),
    ("CN(C)C1CCN(c2ccc(Nc3ncc4cc(C#N)c(=O)n(C5CCCC5)c4n3)cc2F)CC1", 2),
    ("N#Cc1cc2cnc(Nc3cnn(C4CCC(O)CC4)c3)nc2n(C2CCCC2)c1=O (stereo not shown)", 91),
]

// lookup IC50 for CS(=O)(=O)N1CCC(Nc2ncc3cc(C#N)c(=O)n(C4CCCCC4)c3n2)CC1
55

Param item: CC1(C)CCCC1n1c(=O)c(C#N)cc2cnc(NC3CCN(S(C)(=O)=O)CC3)nc21 (stereo not shown)
11

* * *

Target: CDK2 (cyclin A) (Homo sapiens, UniProt P24941)
Construct: purchased Invitrogen Life Technologies (assay service)
Experiment: Z'-LYTE kinase assay
Format: biochemical
Method: IC50 values of compounds against CDK2 (cyclin A) were determined by Z′-LYTE™ These screening assays were performed at Invitrogen Life Technologies (Grand Island, N.Y.) on a low volume NBS, black 384-well plate (#4514, Corning). […] The plates were read on fluorescence plate reader with Dual emission at 445 nm and 520 nm. […]
Structures can show the parent of a compound that is named as a salt.
Some molecules, each annotated with its measured log10(IC50).
Record value = log10 of IC50 given in nM.

# Molecule, Experimental Target, Assay Result
records = [
    ("CC1(C)NCCc2cc(Nc3ncc4cc(C#N)c(=O)n(C5CCCC5)c4n3)ccc21", "CDK2 (cyclin A) (Homo sapiens, UniProt P24941)", 1.20),
    ("CS(=O)(=O)N1CCC(Nc2ncc3cc(C#N)c(=O)n(C4COCC4O)c3n2)CC1 (stereo not shown)", "CDK2 (cyclin A) (Homo sapiens, UniProt P24941)", 2.37),
    ("CC(C)S(=O)(=O)N1CCC(Nc2ncc3cc(C#N)c(=O)n(C4CCCC4)c3n2)CC1", "CDK2 (cyclin A) (Homo sapiens, UniProt P24941)", 1.30),
    ("N#Cc1cc2cnc(Nc3ccc4c(c3)CCNC4)nc2n(C2CC3CC3C2)c1=O (stereo not shown)", "CDK2 (cyclin A) (Homo sapiens, UniProt P24941)", 1.61),
    ("N#Cc1cc2cnc(Nc3ccc4c(c3)CCNC4)cc2n(C2CCCC2)c1=O", "CDK2 (cyclin A) (Homo sapiens, UniProt P24941)", 2.79),
    ("CS(=O)(=O)N1CC[C@@H](Nc2ncc3cc(C#N)c(=O)n(C4CCCC4)c3n2)[C@H](F)C1", "CDK2 (cyclin A) (Homo sapiens, UniProt P24941)", 1.91),
]

Recall the recorded log10(IC50) for N#Cc1cc2cnc(Nc3ccc4c(c3)CCNC4)nc2n(C2CCC2)c1=O [Compound No. 91, hydrochloride] with CDK2 (cyclin A) (Homo sapiens, UniProt P24941) and state it.
1.90

Param item: N#Cc1cc2cnc(Nc3ccc4c(c3)CCNC4)nc2n(C2COCC2O)c1=O (stereo not shown)
3.24

Param item: CS(=O)(=O)N1CCC(Nc2cc3c(cn2)cc(C#N)c(=O)n3C2CCCC2)CC1
0.65

Param item: CS(=O)(=O)N1CCC(Nc2ncc3cc(C#N)c(=O)n(-c4c(F)cccc4F)c3n2)CC1
2.23

* * *

Some compounds, each annotated with its measured pIC50.
Biological target: CDK4 (Homo sapiens)
Assay: In vitro kinase inhibition IC50, luminescence (ADP Glo), retinoblastoma substrate
Conditions: read-out: CDK4/D1 IC50
Description: IC50 values of compounds against CDK4 and CDK6 were determined by luminescence using retinoblastoma as substrate. […] Readings were taken at 15 min and 45 min incubation after detection reagent was added in a Synergy Neo Plate reader (BioTek, Winooski, Vt.) at single excitation of 340 nm and Dual emission at 495 nm and 520 nm respectively. […]
Conceptually, pIC50 converts a concentration in mol/L into minus its log10.

Before answering, review these 6 worked examples.
# Compound, Experimental Target, Assay Result
measured = [
    ("CN1CCN(c2ccc(Nc3cc4c(cn3)cc(C#N)c(=O)n4C3CCCC3)cc2)CC1", "CDK4 (Homo sapiens)", 7.24),
    ("N#Cc1cc2cnc(Nc3cnn(C4CCNCC4)c3)nc2n(C2CCCC2)c1=O", "CDK4 (Homo sapiens)", 7.64),
    ("CN(C)CCN1CCc2cc(Nc3ncc4cc(C#N)c(=O)n(C5CCCC5)c4n3)ccc2C1", "CDK4 (Homo sapiens)", 7.96),
    ("CS(=O)(=O)N1CCC(Nc2ncc3cc(C#N)c(=O)n(C45CC(C4)C5)c3n2)CC1", "CDK4 (Homo sapiens)", 8.15),
    ("N#Cc1cc2cnc(Nc3ccc(N4CCN5CCCC5C4)c(F)c3)nc2n(C2CCCC2)c1=O (stereo not shown)", "CDK4 (Homo sapiens)", 8.19),
    ("N#Cc1cc2cnc(Nc3ccc(N4CCNCC4)cc3)cc2n(C2CCCC2)c1=O", "CDK4 (Homo sapiens)", 7.47),
]

Recall the recorded pIC50 for CCN(CC)CCOc1ccc(Nc2ncc3cc(C#N)c(=O)n(C4CCCC4)c3n2)cc1 with CDK4 (Homo sapiens) and state it.
8.26

Param item: N#Cc1cc2cnc(Nc3ccc4c(c3)CCNC4)nc2n(C23CC(C2)C3)c1=O
6.91

* * *

test system: MCF-7 breast adenocarcinoma cells; test: Cancer cell proliferation assay, single agent (cell viability); format: cell-based; settings: Homo sapiens, MCF7, Table 4; Rb positive; treatment 144 Hr with medium change at 72 Hr; Cell Titer-Glo or resazurin
Some compounds, each annotated with its measured IC50.
Response body: numeric value in µM, unit text excluded.

Before answering, review these 3 worked examples.
# Smiles Entry, IC50, µM
records = [
    ("CS(=O)(=O)N1CCC(Nc2ncc3cc(C#N)c(=O)n([C@@H]4CCC(F)(F)C4)c3n2)CC1", 2.82),
    ("CS(=O)(=O)N1CCC(Nc2ncc3cc(C#N)c(=O)n(CC4CCCCC4)c3n2)CC1", 0.725),
    ("N#Cc1cc2cnc(Nc3ccc4c(c3)CNCCC4)nc2n(C2CCCC2)c1=O", 0.751),
]

Next, consider the following compound.
Recall the recorded IC50 for CCCCCCc1ccc(S(=O)(=O)N2CCC(Nc3ncc4cc(C#N)c(=O)n(C5CCCC5)c4n3)CC2)cc1 with MCF-7 breast adenocarcinoma cells and state it.
1.84
